The measured values listed here are drawn from PubChem BioAssay AID1159580.

- PROCEDURE TEXT: chemical genetic growth profiling, strain panel (AID 1159580);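 note: tested at 20 µM; growth read once vehicle control cultures reached saturation at 30 °C; lower values mean less growth of the strain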
- PARTICULARS: S. cerevisiae deletion strains, growth OD, locus YER155C, strain BEM2 (second series)
Screen size: about 5,500 compounds; about 2,000 (36%) were called active. Inconclusive results (about 18%) are left out. Cut-off read from the data, not from the text of the source: active = normalized growth mostly below about 0.91 (no sharp cut-off); inconclusive = no clear call, values can overlap the other calls; inactive = mostly above about 0.92. This is one part of the list.
Give your call using only these classes: active, inactive

Consider the following illustrative entries.
[[record]]
compound = "COc1ccc2c(c1)OCC(Cc1ccc(OC)c(O)c1)C2=O (stereo unspecified)"
assigned_class = "active"

[[record]]
compound = "Cc1onc(-c2ccccc2)c1-c1ccc(S(N)(=O)=O)cc1"
assigned_class = "inactive"

[[record]]
compound = "Clc1ccccc1CN1CCc2sccc2C1"
assigned_class = "inactive"

[[record]]
compound = "COC(=O)[C@H](c1ccccc1Cl)N1CCc2sccc2C1"
assigned_class = "inactive"

[[record]]
compound = "CC(C)c1nc(N(C)S(C)(=O)=O)nc(-c2ccc(F)cc2)c1/C=C/[C@@H](O)C[C@@H](O)CC(=O)O"
assigned_class = "inactive"


Q: Give the logged outcome of this assay for the following compound: COc1ccc2c(c1)OCC(Cc1ccc(OC)c(OC)c1)C2=O (stereo unspecified)
Ans: active
